Cytosolic phospholipase A2 (Homo sapiens) data, read-out IC50
Sequence (P47712 whole entry): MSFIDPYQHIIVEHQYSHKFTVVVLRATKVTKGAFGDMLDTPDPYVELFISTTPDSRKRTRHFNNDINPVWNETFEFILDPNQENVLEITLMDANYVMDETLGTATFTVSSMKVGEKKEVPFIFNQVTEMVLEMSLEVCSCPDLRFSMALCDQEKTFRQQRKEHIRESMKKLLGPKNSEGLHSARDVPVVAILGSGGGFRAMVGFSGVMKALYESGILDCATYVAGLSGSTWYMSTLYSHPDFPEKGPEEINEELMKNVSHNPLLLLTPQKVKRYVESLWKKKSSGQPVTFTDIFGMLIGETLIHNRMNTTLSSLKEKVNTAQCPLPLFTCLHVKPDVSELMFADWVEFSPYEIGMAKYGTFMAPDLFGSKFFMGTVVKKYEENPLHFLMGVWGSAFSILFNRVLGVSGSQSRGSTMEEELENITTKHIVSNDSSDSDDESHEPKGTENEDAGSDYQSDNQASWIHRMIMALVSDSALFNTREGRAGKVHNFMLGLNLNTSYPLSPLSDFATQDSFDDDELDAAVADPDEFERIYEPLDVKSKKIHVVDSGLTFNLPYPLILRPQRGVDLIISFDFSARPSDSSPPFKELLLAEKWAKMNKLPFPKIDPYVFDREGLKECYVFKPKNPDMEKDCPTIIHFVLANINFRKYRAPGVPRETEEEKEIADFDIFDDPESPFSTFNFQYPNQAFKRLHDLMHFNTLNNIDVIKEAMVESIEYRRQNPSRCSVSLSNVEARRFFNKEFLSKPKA
metric: IC50 (nM)

>>> testvalue("CCCCCCCCc1ccc(OCC(=O)Cn2ccc3cc(C(=O)N(C)C)ccc32)cc1")
840
>>> testvalue("CCCCC/C=C\\C/C=C\\C/C=C\\C/C=C\\CCCC(=O)C(F)(F)F")
2300
>>> testvalue("CCCCCCCCc1ccc(OCC(=O)Cn2cc(C(=O)OC)c3cc(C(=O)O)ccc32)cc1")
5
